- Tested on: Vero-E6
- assayNotes: primary screen, phospholipidosis by LipidTOX staining; higher = more effect of the substance
- protocolConditions: 10 µM
The campaign covered roughly 5,400 compounds. About 190 (3.5%) showed an effect of 50% or more. The sample holds strong results, similar compounds and a random draw of the others, so the mix is not that of the screen.
readoutLabel: result_ITMP (%)

INSERT INTO results (smilesinput, targetofassay, readoutlabel, assayresult) VALUES
  ('O=C(c1ccc(F)c(F)c1Nc1ccc(I)cc1F)N1CC(O)([C@@H]2CCCCN2)C1', 'Vero-E6', 'result_ITMP', 78.8),
  ('C=C1/C(=C\C=C2/CCC[C@]3(C)[C@@H]([C@H](C)/C=C/[C@H](C)C(C)(C)O)CC[C@@H]23)C[C@@H](O)C[C@@H]1O', 'Vero-E6', 'result_ITMP', -2.3),
  ('C[C@@H]1CCO[C@H]2Cn3cc(C(=O)NCc4ccc(F)cc4F)c(=O)c(O)c3C(=O)N12', 'Vero-E6', 'result_ITMP', -4.23),
  ('O=C(Nc1ccc(CN2CCOCC2)cc1)c1ccc(-c2cccc(Cl)c2)o1', 'Vero-E6', 'result_ITMP', 56.3),
  ('O=C(NOCC1CC1)c1ccc(F)c(F)c1Nc1ccc(I)cc1Cl', 'Vero-E6', 'result_ITMP', 1.02),
  ('O=S(=O)(c1ccccc1)c1cnc2c(N3CCNCC3)cccc2c1', 'Vero-E6', 'result_ITMP', 39.6),
  ('O=P([O-])(O)C(Cl)(Cl)P(=O)([O-])O', 'Vero-E6', 'result_ITMP', -2.27),
  ('COCC(=O)O[C@]1(CCN(C)CCCc2nc3ccccc3[nH]2)CCc2cc(F)ccc2[C@@H]1C(C)C', 'Vero-E6', 'result_ITMP', 88.2),
  ('CC(C)[C@H]1c2ccc(F)cc2CC[C@@]1(CCN(C)CCCc1nc2ccccc2[nH]1)OC(=O)C1CC1', 'Vero-E6', 'result_ITMP', 68.1);
